Listing of recorded pIC50 by entry.
System: HuTu 80
Assay: cells
Conditions: Homo sapiens, HuTu80, read-out: IC50, HuTu 80
pIC50: −log10 of the molar value.
quantity.name: pIC50

> print(dat)
                                   molecule  quantity.name  relation.operator  observed
1  CN1C[C@@H]2[C@@H](c3c(O)c(Cl)cc(Cl)c3OP2(=O)O)C12C(=O)c1ccccc1C2=O          pIC50                  =      4.00
2  Cc1cc(C)c2c(c1C)OP(=O)(O)[C@@H]1[C@H]3CCCN3C3(C(=O)c4ccccc4C3=O)[C@H]21          pIC50                  <      4.00
3  Cc1cc(C)c2c(c1C)OP(=O)(O)[C@@H]1CN(C)C3(C(=O)c4ccccc4C3=O)[C@H]21          pIC50                  =      4.60
4  CN1C[C@@H]2[C@@H](c3ccc4ccccc4c3OP2(=O)O)C12C(=O)c1ccccc1C2=O          pIC50                  =      4.08
5  COc1ccc2c(c1)OP(=O)(O)[C@@H]1CN(C)C3(C(=O)c4ccccc4C3=O)[C@H]21          pIC50                  =      4.27
6  O=c1[nH]cc(F)c(=O)[nH]1 [5-fluorouracil, reference compound]          pIC50                  =      4.19
